# TARGET_UNDER_TEST: Protein-tyrosine kinase 6 (Homo sapiens) (UniProt Q13882)
# Sequence (Q13882 whole entry, looked up): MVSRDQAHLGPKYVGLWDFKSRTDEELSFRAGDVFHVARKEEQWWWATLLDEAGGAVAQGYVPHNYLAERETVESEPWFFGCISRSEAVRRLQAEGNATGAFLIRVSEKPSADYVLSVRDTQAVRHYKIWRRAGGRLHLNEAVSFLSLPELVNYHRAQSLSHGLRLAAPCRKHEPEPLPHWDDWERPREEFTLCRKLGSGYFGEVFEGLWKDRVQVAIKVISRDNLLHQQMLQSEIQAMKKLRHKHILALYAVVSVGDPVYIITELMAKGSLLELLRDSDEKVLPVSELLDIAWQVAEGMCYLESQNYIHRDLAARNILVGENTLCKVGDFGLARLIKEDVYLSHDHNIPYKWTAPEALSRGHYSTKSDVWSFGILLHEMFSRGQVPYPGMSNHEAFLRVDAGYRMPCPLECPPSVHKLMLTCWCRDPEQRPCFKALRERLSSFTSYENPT
# CONDITION_SET: at 1 µM
# Description: GSK_PKIS: BRK mean inhibition at 1 uM [Nanosyn]
MEASURED_ENDPOINT: inhibition (%)
Numeric answer only, unit % assumed.

Recall and state the measured inhibition for `CN1CCN(C(=O)c2ccc(NC(=O)Nc3ccc(N(C)c4ccnc(Nc5ccc(CS(C)(=O)=O)cc5)n4)cc3)cc2)CC1` .
13.5

Tell us which inhibition value is on record for `Cc1ccc2c(c1)/C(=N/Nc1ccc(S(N)(=O)=O)cc1)C(=O)N2`
-3.16

Output measured inhibition for this item: `CN(C)CCCn1c(-c2nonc2N)nc2cnccc21`
3.36

Please report inhibition for the following compound: `COc1ccc2ncnc(Nc3ccc(OCc4ccccc4)cc3)c2c1`
9.39

Provide measured inhibition value, entry: `NS(=O)(=O)c1ccc(NC=C2C(=O)Nc3ccc4ncsc4c32)cc1`
8.92

Please give measured inhibition of the following entry: `COc1cc2ncnc(Nc3ccc(C)c(O)c3)c2cc1OC`
65.5

Answer with reported inhibition of `COc1cccc(-n2nc(C)c3c(N/N=C(\C)c4ccncc4)ncnc32)c1`
-0.15

====

# TARGET_UNDER_TEST: Mitogen-activated protein kinase 1 (Homo sapiens) (UniProt P28482)
# Sequence (P28482 whole entry): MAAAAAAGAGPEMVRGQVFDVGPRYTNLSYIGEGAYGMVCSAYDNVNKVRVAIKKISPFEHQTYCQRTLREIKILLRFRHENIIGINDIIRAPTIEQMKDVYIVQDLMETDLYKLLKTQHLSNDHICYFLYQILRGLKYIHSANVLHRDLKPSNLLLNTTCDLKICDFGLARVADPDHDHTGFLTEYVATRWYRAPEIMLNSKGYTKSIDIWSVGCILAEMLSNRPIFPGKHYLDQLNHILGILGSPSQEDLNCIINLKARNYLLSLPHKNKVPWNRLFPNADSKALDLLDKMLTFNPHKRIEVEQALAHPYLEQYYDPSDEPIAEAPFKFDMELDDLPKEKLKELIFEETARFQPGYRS
# CONDITION_SET: at 0.1 µM
Please go through the items and note down their inhibition.
Respond with the figure and its unit, in that order.

Please indicate inhibition recorded for `OCc1ccc(-c2nc(-c3ccccn3)c(-c3ccc4c(c3)OCO4)[nH]2)cc1`
5.49%

Give a short answer stating reported inhibition for `Cc1ccc(O)cc1Nc1ccnc2ccc(S(C)(=O)=O)cc12` .
5.91%

Item `[O-][S+]1CCN(Cc2ccc(-c3ccc4ncnc(Nc5ccc(OCc6ccccc6)c(Cl)c5)c4c3)o2)CC1` : provide inhibition
3.15%

Return inhibition for the following molecule: `Cc1ccc(C(=O)NC2CC2)cc1-c1ccc2[nH]ncc2c1`
-3.82%

Using the record for `Nc1nccc(C#Cc2cncnc2Nc2ccc(OCc3cccc(F)c3)c(Cl)c2)n1` , state its measured inhibition.
3.54%

Specify measured inhibition for `O=C1Nc2ccccc2/C1=C/Nc1ccc2[nH]c(=O)[nH]c2c1` .
5.93%

Check the records and state inhibition for `CN(C)c1cc2c(Nc3ccc4c(cnn4Cc4ccccc4)c3)ncnc2cn1`
1.31%

Give me measured inhibition, please, for this molecule: `Cc1ccc(Nc2ccnc(Nc3cccc(C(N)=O)c3)n2)cc1O`
4.59%

Please report the measured inhibition for `c1ccc(Cc2nc3ccc(Nc4ncnc5ccccc45)cc3[nH]2)cc1`
3.59%

State its inhibition for this molecule: `CN(C)C(=O)O[C@@H]1CN[C@@H](C#Cc2cc3ncnc(Nc4ccc(OCc5cccc(F)c5)c(Cl)c4)c3s2)C1`
-1.16%

====

# TARGET_UNDER_TEST: Aurora kinase B (Homo sapiens) (UniProt Q96GD4);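 also: reported values are averaged percent inhibition of Aurora B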
# Sequence (Q96GD4 whole entry): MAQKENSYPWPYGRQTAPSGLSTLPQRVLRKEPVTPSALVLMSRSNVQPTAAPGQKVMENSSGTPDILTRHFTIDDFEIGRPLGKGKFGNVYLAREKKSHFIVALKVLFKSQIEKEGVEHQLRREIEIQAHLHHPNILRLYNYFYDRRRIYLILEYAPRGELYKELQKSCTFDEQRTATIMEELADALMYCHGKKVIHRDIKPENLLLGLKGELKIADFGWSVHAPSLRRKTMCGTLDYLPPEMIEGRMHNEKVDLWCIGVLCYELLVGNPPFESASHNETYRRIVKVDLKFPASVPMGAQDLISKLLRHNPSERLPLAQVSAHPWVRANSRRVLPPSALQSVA
# CONDITION_SET: at 0.1 µM
So I've got a bunch of compounds here, and I need their inhibition values.
Field format: number, assumed %, no unit text.

Respond only with inhibition recorded for `[O-][S+]1CCN(Cc2ccc(-c3ccc4ncnc(Nc5ccc(OCc6ccccc6)c(Cl)c5)c4c3)o2)CC1`
3.28

Determine from records and report inhibition for `CC(C)c1ccc(Nc2nccc(-c3cnn4ncccc34)n2)cc1`
7.65

# return recorded inhibition for entry `CC(C)c1ccc2c(c1)NC(=O)/C2=N/Nc1ccc(S(N)(=O)=O)cc1`
1.3

Indicate the recorded inhibition value for this compound: `c1ccc(Nc2ncc(-c3ccccc3)o2)cc1`
3.84

Identify measured inhibition associated with `C[C@@H](Oc1cc(-n2cnc3ccc(OC[C@@H](O)CO)cc32)sc1C(N)=O)c1ccccc1Cl`
0.7

Please look at this compound and report its inhibition: `NS(=O)(=O)c1cccc(-c2cc3ccncc3cc2OCc2ccccc2)c1`
7.33

Give the value of inhibition reported for the following: `COc1cc(/C=N/Nc2ncnc3c2cnn3C(C)C)ccc1O`
3.34

Answer with the recorded inhibition for the compound listed here: `ON=C1CCc2cc(-c3nc(C4CCNCC4)[nH]c3-c3ccncc3)ccc21`
0.1

Identify inhibition associated with the compound `COc1ccc(-c2nn3ncccc3c2-c2ccnc(Nc3cccc(C(F)(F)F)c3)n2)cc1`
1.05

Please give measured inhibition of the following entry: `CN(C)CCCn1c(-c2nonc2N)nc2cnccc21`
3.93

Tell me its inhibition given `Cc1cc(Cl)cc2c1NC(=O)C2=NNc1ccc(S(N)(=O)=O)cc1` as the entry.
4.55

Name the recorded inhibition of the item `COc1cc2ncnc(Nc3ccc4c(cnn4Cc4ccccc4)c3)c2cc1OC` in your answer.
3.48

State, in one line, measured inhibition of `NS(=O)(=O)c1ccc(Nc2cc(-c3cccc(O)c3)n[nH]2)cc1`
9.52

Let me know recorded inhibition for `CN(C)c1cc2c(Nc3ccc4c(cnn4Cc4ccccc4)c3)ncnc2cn1` , thanks.
-0.85

Annotate the compound `COC(=O)c1cncc(/C=C/c2c(C)cc(O)cc2C)c1` with its measured inhibition.
2.38

Name the recorded inhibition of the item `CCS(=O)(=O)c1ccc(OC)c(Nc2nccc(N(C)c3ccc4c(C)n[nH]c4c3)n2)c1` in your answer.
3.25

====

# TARGET_UNDER_TEST: Platelet-derived growth factor receptor alpha (Homo sapiens) (UniProt P16234)
# Sequence (P16234 whole entry): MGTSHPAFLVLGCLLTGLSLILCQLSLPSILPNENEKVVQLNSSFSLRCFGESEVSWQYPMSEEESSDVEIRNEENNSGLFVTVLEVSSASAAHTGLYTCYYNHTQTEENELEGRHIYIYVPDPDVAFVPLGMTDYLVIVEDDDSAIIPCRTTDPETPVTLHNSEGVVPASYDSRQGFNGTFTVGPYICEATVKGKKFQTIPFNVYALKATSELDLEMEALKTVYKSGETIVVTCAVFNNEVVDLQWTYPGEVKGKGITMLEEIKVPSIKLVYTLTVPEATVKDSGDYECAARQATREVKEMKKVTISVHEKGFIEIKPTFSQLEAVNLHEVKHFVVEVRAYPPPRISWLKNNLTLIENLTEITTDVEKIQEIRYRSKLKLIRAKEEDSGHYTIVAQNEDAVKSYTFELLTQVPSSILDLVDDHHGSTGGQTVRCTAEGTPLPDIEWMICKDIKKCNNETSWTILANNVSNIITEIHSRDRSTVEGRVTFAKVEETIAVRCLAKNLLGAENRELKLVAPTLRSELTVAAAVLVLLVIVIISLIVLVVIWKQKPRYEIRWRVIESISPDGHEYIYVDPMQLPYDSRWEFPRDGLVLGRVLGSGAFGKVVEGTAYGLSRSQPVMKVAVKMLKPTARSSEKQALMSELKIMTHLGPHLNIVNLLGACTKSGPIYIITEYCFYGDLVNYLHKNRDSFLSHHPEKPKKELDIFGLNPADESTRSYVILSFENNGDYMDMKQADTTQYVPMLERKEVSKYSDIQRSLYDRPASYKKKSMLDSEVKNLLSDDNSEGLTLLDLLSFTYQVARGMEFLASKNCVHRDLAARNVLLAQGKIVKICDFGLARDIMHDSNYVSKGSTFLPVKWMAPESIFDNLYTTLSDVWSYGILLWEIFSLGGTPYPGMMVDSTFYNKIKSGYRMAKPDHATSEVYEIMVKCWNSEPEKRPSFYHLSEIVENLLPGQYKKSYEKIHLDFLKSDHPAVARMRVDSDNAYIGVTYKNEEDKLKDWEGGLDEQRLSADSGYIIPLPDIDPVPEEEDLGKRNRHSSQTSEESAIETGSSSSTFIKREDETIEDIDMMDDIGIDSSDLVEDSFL
# CONDITION_SET: at 0.1 µM
# Description: GSK_PKIS: PDGFRA mean inhibition at 0.1 uM [Nanosyn]
MEASURED_ENDPOINT: inhibition (%)
Express it in %; write the number only.

For `COc1cccc(-n2ncc3c(N/N=C/c4ccc(C)cc4)ncnc32)c1` , write its inhibition.
8.78

For the compound `CN(C)C(=O)O[C@H]1CN[C@H](C#Cc2cc3ncnc(Nc4ccc(OCc5cccc(F)c5)c(Cl)c4)c3s2)C1` , report inhibition.
6.77

Give inhibition for `NC(=O)c1cccc(Nc2nccc(Nc3cccc(F)c3)n2)c1`
7.13

====

# TARGET_UNDER_TEST: Tyrosine-protein kinase ZAP-70 (Homo sapiens);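 also: values are mean percent inhibition of ZAP-70 kinase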
# CONDITION_SET: at 0.1 µM
Can you tell me inhibition for the items I'm about to list?
Express it in %; write the number only.

Consider the compound `CN(C)C(=O)O[C@@H]1CN[C@@H](C#Cc2cc3ncnc(Nc4ccc(OCc5cccc(F)c5)c(Cl)c4)c3s2)C1` . State its measured inhibition.
0.96

Identify inhibition associated with the compound `CCn1c(-c2nonc2N)nc2c(C#CC(C)(C)O)nc(OCCNC)cc21`
1.77

Consider the compound `COc1cccc(-n2ncc3c(N/N=C/c4ccc(S(C)(=O)=O)cc4)ncnc32)c1` . State its measured inhibition.
-3.44

Output measured inhibition for this item: `Nc1nccc(C#Cc2cncnc2Nc2ccc(OCc3cccc(F)c3)c(Cl)c2)n1`
1.97

Fill in reported inhibition for this entry: `Cc1ccc(Nc2ccnc(Nc3cccc(C(N)=O)c3)n2)cc1O`
-1.9

Fill in reported inhibition for this entry: `c1ccc(Cc2nc3ccc(Nc4ncnc5ccccc45)cc3[nH]2)cc1`
1.42

Return inhibition (reported value) for this compound: `Cc1cc(O)cc(C)c1/C=C/c1cncc(C(=O)N(C)C)c1`
1.81

Fill in inhibition for record `c1ccc(Nc2ncc(-c3ccccc3)o2)cc1`
-1.32

Tell me inhibition reported for `COc1cc2ncnc(Nc3ccc4c(cnn4Cc4ccccc4)c3)c2cc1OC`
-3.74

Identify the reported inhibition for the following entry. `[O-][S+]1CCN(Cc2ccc(-c3ccc4ncnc(Nc5ccc(OCc6ccccc6)c(Cl)c5)c4c3)o2)CC1`
-3.44

Please report inhibition for the following compound: `O=S(=O)(CCOCc1ccc(-c2ccc3ncnc(Nc4ccc(OCc5cccc(F)c5)c(Cl)c4)c3c2)o1)c1ccccc1`
-5.44

Output inhibition of `N#Cc1cccc(Nc2nccc(-c3cnn4ncccc34)n2)c1`
3.19

====

# TARGET_UNDER_TEST: Cyclin-dependent kinase 6 (Homo sapiens);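 also: mean percent inhibition of CDK6 complexed with cyclin D3, from the GSK PKIS kinase inhibitor screen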
# CONDITION_SET: at 0.1 µM
MEASURED_ENDPOINT: inhibition (%)
Dear colleague, please return just the value in %, with no unit written.

Dear colleague, please send me the reported inhibition for `Nc1nccc(C#Cc2cncnc2Nc2ccc(OCc3cccc(F)c3)c(Cl)c2)n1` when you can.
3.61

Please report the measured inhibition for `OCc1ccc(-c2nc(-c3ccccn3)c(-c3ccc4c(c3)OCO4)[nH]2)cc1`
-1

Check the records and state inhibition for `Cc1cc(Cl)cc2c1NC(=O)C2=NNc1ccc(S(N)(=O)=O)cc1`
2.2

Complete the entry with inhibition for `Cc1ccc2c(c1)/C(=N/Nc1ccc(S(N)(=O)=O)cc1)C(=O)N2`
-2.12

Look up and report measured inhibition for this entry: `O=C1Nc2ccc(-c3cccnc3)cc2C1=Cc1cc(Br)c(O)c(Br)c1`
5.85

Determine from records and report inhibition for `COc1cccc(-n2ncc3c(N/N=C/c4ccc(S(C)(=O)=O)cc4)ncnc32)c1`
0.78

====

# TARGET_UNDER_TEST: Mitogen-activated protein kinase 11 (Homo sapiens);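 also: reported values are averaged (mean) percent inhibition of p38beta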
# CONDITION_SET: at 0.1 µM
Kindly supply the reported inhibition values for the records listed here.
Respond with the bare value in %.

In one line, give reported inhibition of the entry `Nc1nccc(C#Cc2cncnc2Nc2ccc(OCc3cccc(F)c3)c(Cl)c2)n1` .
0.46

Hello, please tell me recorded inhibition for this one: `CS(=O)(=O)Nc1cccc(-c2ccc3c(NC(=O)C4CC4)n[nH]c3c2)c1`
2.35

Give the measured inhibition for `CC(C)c1ccc2c(c1)NC(=O)/C2=N/Nc1ccc(S(N)(=O)=O)cc1`
-1.84

Supply inhibition value. Item: `CCS(=O)(=O)c1ccc(OC)c(Nc2nccc(N(C)c3ccc4c(C)n[nH]c4c3)n2)c1`
3.01

Specify measured inhibition for `COc1ccc(-c2nn3ncccc3c2-c2ccnc(Nc3cccc(C(F)(F)F)c3)n2)cc1` .
7.58

In one line, give reported inhibition of the entry `COc1cc(Nc2nccc(-c3cnn4ncccc34)n2)cc(OC)c1` .
2.14

For the molecule `Cc1cc(Cl)cc2c1NC(=O)C2=NNc1ccc(S(N)(=O)=O)cc1` , give its measured inhibition value.
3.77

Fill in inhibition for record `Cc1cc(O)cc(C)c1/C=C/c1cncc(C(=O)N(C)C)c1`
3.38

Give inhibition for the following molecule: `c1ccc(Nc2ncc(-c3ccccc3)o2)cc1`
5.86

Supply inhibition value. Item: `COc1cc(/C=N/Nc2ncnc3c2cnn3C(C)C)ccc1O`
0.99

Name the recorded inhibition of the item `OCc1ccc(-c2nc(-c3ccccn3)c(-c3ccc4c(c3)OCO4)[nH]2)cc1` in your answer.
4.13

Name the recorded inhibition of the molecule listed here: `NS(=O)(=O)c1ccc(NC=C2C(=O)Nc3ccc4ncsc4c32)cc1`
9.06

Specify measured inhibition for `CN(C)C(=O)O[C@@H]1CN[C@@H](C#Cc2cc3ncnc(Nc4ccc(OCc5cccc(F)c5)c(Cl)c4)c3s2)C1` .
3.3

Input `Cc1nc(-c2ccccc2)n2nc(NCCCN3CCOCC3)ncc12` , output reported inhibition.
1.59

Consider the molecule `Cc1ccc2c(c1)/C(=N/Nc1ccc(S(N)(=O)=O)cc1)C(=O)N2` and give its recorded inhibition.
3.1

Report inhibition for `Cc1cc(-c2ccccn2)cc(C)c1/C=C/c1cncc(-c2nn[nH]n2)c1`
3.45

Item `Cc1ccc(Nc2ccnc(Nc3cccc(C(N)=O)c3)n2)cc1O` : provide inhibition
3.7

Entry `COC(=O)Nc1nc2cc(Oc3ccc(NC(=O)Nc4cccc(Br)c4)cc3)ccc2[nH]1` needs its inhibition filled in; supply it.
7.96

Query inhibition for `CCn1c(-c2nonc2N)nc2ccc(F)cc21`
7.69

Please report inhibition for the following molecule: `O=C1Nc2ccc(-c3cccnc3)cc2C1=Cc1cc(Br)c(O)c(Br)c1`
1.48
